Test system: Gli1-mediated transcription (human full-length Gli1)
Experiment: Gli-Luc reporter assay in C3H10T1/2 cells transfected with Gli1
Format: cell-based
Details: Gli1-transfected C3H10T1/2 cells, 10 µM or 20 µM, 24 h
Endpoint: inhibition of Gli1-mediated transcription (Gli-Luc), relative potency in words

CC(CNC(=O)c1cccc2cc[nH]c12)c1cccc(C(=O)c2ccccc2)c1 (stereo not shown) [compound 31] | decreased the potency
CCCC(C)(C(=O)Nc1ccc2cc[nH]c2c1)c1cccc(C(=O)c2ccccc2)c1 (stereo not shown) [compound 40] | did not increase potency
CC(CNC(=O)c1cccc2[nH]ccc12)c1cccc(C(=O)c2ccccc2)c1 (stereo not shown) [compound 30] | decreased the potency
CCCn1ccc2ccc(NC(=O)C(C)c3cccc(C(=O)c4ccccc4)c3)cc21 (stereo not shown) [compound 41] | did not increase potency
